Values were extracted from ChEMBL document CHEMBL1201862.

System: U-251
Experiment: NCI tumour cell line growth inhibition, 48 h
The source made the active and inactive calls. No stated cut-off is given here; in the data, active = GI50 up to about 1.1 µM and inactive = higher.
Measured GI50 of individual entries

# annotated cases, reported GI50 shown
Oc1ccc(-c2c3ccccc3c(-c3ccc(OCCBr)cc3)c3ccccc23)cc1 | 32.3 µM (inactive)
Cc1nc(-c2cc3c(ccc4ccccc43)oc2=O)cs1 | 57.9 µM (inactive)

Q: Query for U-251: what GI50 does the record show for `COc1ccc2cc1Oc1ccc(cc1)C[C@@H]1c3cc(c(OC)cc3CCN1C)Oc1c(OC)c(OC)cc3c1[C@@H](C2)N(C)CC3` ?
Result: 13.2 µM (inactive)

Q: Query for U-251: what GI50 does the record show for COc1cc(C2c3c(ccc4ccccc34)C(=O)C3CCC(=O)N32)cc(OC)c1OC (stereo not given) ?
Result: > 50 µM (inactive)

Q: Query for U-251: what GI50 does the record show for `O=c1cc(/N=N\c2ccc(Cl)cc2)[nH]c(=O)[nH]1` ?
Result: 4.81 µM (inactive)

Q: Query for U-251: what GI50 does the record show for CC1=NN(c2ccc(C)cc2)C2(C1)SCC(=O)N2c1nc2ccccc2s1 (stereo not given) ?
Result: 16.6 µM (inactive)

Q: Query for U-251: what GI50 does the record show for CCOC(=O)N1C=NC23C(c4ccccc4)C(c4ccccc4)C12C(=O)N(C)C(=O)N3C (stereo not given) ?
Result: > 100 µM (inactive)

Q: Query for U-251: what GI50 does the record show for `COc1cc(/C=C2\C[C@H]3[C@@H]4CC=C5C[C@@H](N6CCCC6)CC[C@]5(C)[C@H]4CC[C@]3(C)[C@H]2O)cc(OC)c1OC` ?
Result: 15.4 µM (inactive)

Q: Query for U-251: what GI50 does the record show for C[C@@H]1CC[C@@]2(C)[C@H](C)/C(=C\COC(=O)/C=C/c3ccc(O)c(O)c3)CC[C@@]12C [NAVICULYL CAFFEATE] ?
Result: 5.35 µM (inactive)

Q: Query for U-251: what GI50 does the record show for O=C1C(Cl)C2(CC(/C=C/c3ccccc3)=NN2c2cccc(S(=O)(=O)O)c2)N1c1nc2ccccc2s1 (stereo not given) ?
Result: 14.7 µM (inactive)

Q: Query for U-251: what GI50 does the record show for `O=C(CON1C(=O)c2ccccc2C1=O)c1ccccc1` ?
Result: > 100 µM (inactive)

Q: Query for U-251: what GI50 does the record show for COC1=CC(=O)c2c(cc3c(c2O)-c2c(OC)cc4cc5c(c(O)c4c2OC(=O)CC(C)(O)C3)C(=O)CC(C)(O)C5)C1=O (stereo not given) ?
Result: 2.77 µM (inactive)

Q: Query for U-251: what GI50 does the record show for CC[S+](C)c1ccc(-c2c3nc(c(-c4ccc([S+](C)CC)cc4)c4ccc([nH]4)c(-c4ccc([S+](C)CC)cc4)c4nc(c(-c5ccc([S+](C)CC)cc5)c5ccc2[nH]5)C=C4)C=C3)cc1.[O-][Cl+3]([O-])([O-])[O-].[O-][Cl+3]([O-])([O-])[O-].[O-][Cl+3]([O-])([O-])[O-].[O-][Cl+3]([O-])([O-])[O-] (stereo not given) ?
Result: 16.6 µM (inactive)

Q: Query for U-251: what GI50 does the record show for `O=[N+]([O-])c1ccc(OCc2nnc(CCCCCCCCc3nnc(COc4ccc([N+](=O)[O-])cc4)o3)o2)cc1` ?
Result: 95.9 µM (inactive)

Q: Query for U-251: what GI50 does the record show for COc1ccc(C2CC(c3cc(C)ccc3O)=NC(N)=N2)cc1 (stereo not given) ?
Result: > 100 µM (inactive)

###

Measured GI50 of individual entries
Tested on: SF-539
Test: NCI tumour cell line growth inhibition, 48 h
Active and inactive are the calls of the source. No stated cut-off is given here; in the data, active = GI50 up to about 1.1 µM and inactive = higher.

N=C(N)NCC[C@H](NC(=O)OCCCCCn1ccc(=O)[nH]c1=O)C(=O)O | > 100 µM (inactive)
COc1ccc2c(c1)-c1[nH]c3ccccc3c1CC2 | 17.4 µM (inactive)
CC(O)[C@@]1(c2ccccc2)CC2(CCN(C)CC2)O[C@H]1C (stereo not given in full) | > 100 µM (inactive)
CN(C)CC(O)CNC(=O)Nc1ccccc1 (stereo not given) | > 100 µM (inactive)
Cn1c(N/N=C/c2ccccc2)nc(-c2ccc([N+](=O)[O-])cc2)c(C#N)c1=O | 69.2 µM (inactive)
CN(C)CCCNc1ccnc2c([N+](=O)[O-])cccc12 | 20.7 µM (inactive)
CCc1cc(O)c(Cl)c(C)c1Cl | 18.2 µM (inactive)
ClC1(c2ccccc2)c2ccc(Br)cc2-c2cc(Br)ccc21 | 18.7 µM (inactive)

Q: Need GI50, item COc1ccc2c(c1)OCCCN(C)OC2c1ccccc1 (stereo not given)
Result: > 100 µM (inactive)

Q: Need GI50, item `CN1CN(c2ccccc2)C2(CCNCC2)C1=O`
Result: > 100 µM (inactive)

###

Tested on: KM-20L2
Test: NCI tumour cell line growth inhibition, 48 h
Active and inactive are the calls of the source. Rule as the data show it: active = GI50 up to about 1.1 µM and inactive = higher.
parameter: GI50

# annotated cases, reported GI50 shown
Cc1cc([N+](=O)[O-])ccc1Nc1cccc(Cl)c1C | 14 µM (inactive)
O=C(c1ccccc1)c1c(-c2ccccc2)sc2nc3ccccc3nc12 | > 100 µM (inactive)

Q: Need GI50, item CC(=O)NC1C(OCc2ccccc2)OC(COC(=O)CCCCCCCCCCNC(=O)c2cccc3c(=O)c4ccccc4[nH]c23)C(O)C1OC(C)C(=O)NC(C)C(=O)NC(CCC(N)=O)C(N)=O (centres undefined)
Result: > 100 µM (inactive)

Q: Need GI50, item CCOC(=O)N1C=NC23C(c4ccccc4)C(c4ccccc4)C12C(=O)N(C)C(=O)N3C (centres undefined)
Result: > 100 µM (inactive)

###

Measured GI50 of individual entries
Test system: HT-29
Test: NCI tumour cell line growth inhibition, 48 h
Calls of active or inactive are those of the source. Cut-off read from the data, not from the text of the source: active = GI50 up to about 1.1 µM and inactive = higher.

Cc1cc(C)nc(NS(=O)(=O)c2ccc(NNC(=O)c3cccc4c(NNc5ccc(S(=O)(=O)Nc6nc(C)cc(C)n6)cc5)c5ccccc5nc34)cc2)n1 | 21.8 µM (inactive)

Q: Need GI50, item `O=C1c2ccccc2-c2cccc3ccc(Cc4ccccc4)c1c23`
Result: > 100 µM (inactive)

Q: Need GI50, item COc1cc(C2c3cc4c(cc3OC3(OC)COC(=O)C23)OCO4)cc(OC)c1OC(C)=O (stereo not drawn)
Result: 2.47 µM (inactive)

Q: Need GI50, item `COC(=O)c1ccc(Nc2nc3[nH]cnc3c(=O)[nH]2)cc1`
Result: 58.7 µM (inactive)

###

System: HCT-15
parameter: GI50 (µM)
Field format: number, assumed µM, no unit text.

Q: Query for HCT-15: what GI50 does the record show for `O=C1C(c2c(O)[nH]c3ccc(Br)cc23)=Nc2ccc(Br)cc21` ?
Result: 43

Q: Query for HCT-15: what GI50 does the record show for `O=C1C=CC(=O)c2c1ccc1c3ccccc3n(Cc3cccc([N+](=O)[O-])c3)c21` ?
Result: 21.5

Q: Query for HCT-15: what GI50 does the record show for CCCCC1C=Cn2c(=O)oc3c(OC(C)C)c(C)c(O)c1c32 (stereo not given) ?
Result: 0.357

Q: Query for HCT-15: what GI50 does the record show for CC(=O)NC1C(OCc2ccccc2)OC(COC(=O)CCCCCCCCCCNC(=O)c2cccc3c(=O)c4ccccc4[nH]c23)C(O)C1OC(C)C(=O)NC(C)C(=O)NC(CCC(N)=O)C(N)=O (stereo not given) ?
Result: 85.3

Q: Query for HCT-15: what GI50 does the record show for `O=C1/C(=C\c2cccs2)Oc2ccccc21` ?
Result: 36.6

###

System: M14
Test: NCI tumour cell line growth inhibition, 48 h
Activity calls are given as the source filed them. Cut-off read from the data, not from the text of the source: active = GI50 up to about 1.1 µM and inactive = higher.
Please reply with one of these outcomes: y = active, n = inactive

As a guide, the following entries are already answered.
Cc1ccc([S+]([O-])C(C)C(Cl)c2ccccc2)cc1 (stereo not drawn) | n
COc1cc([C@H]2c3cc4c(cc3[C@H](NCc3ccc([N+](=O)[O-])cc3)C3COC(=O)[C@H]32)OCO4)cc(OC)c1O (stereo partly drawn) | n
N#Cc1c2ccccc2cn1-c1ccc(F)cc1 | n
COC1(CC[C@@H](C)COC2OC(CO)C(O)C(O)C2O)O[C@H]2C[C@H]3[C@@H]4CC=C5C[C@@H](OC6OC(CO)C(O)C(OC7OC(CO)C(O)C(O)C7O)C6OC6OC(C)C(O)C(O)C6O)CC[C@]5(C)[C@H]4CC[C@]3(C)[C@H]2[C@@H]1C (stereo partly drawn) | n
CSc1ncnc2c1ncn2CCC(=O)OC(C)(C)C | n
CC(C)CC(NC=O)C(=O)NC(Cc1ccccc1)NC(=O)CNC(=O)C(C)NC(=O)C(N)Cc1ccc(O)cc1 (stereo not drawn) | n
CN(C)CC1=Nc2cccc3cccc(c23)N1 | n
CC(=O)C(C(C)=O)[C@@H]1OC(C)(C)O[C@@H]1[C@H]1COC(C)(C)O1 | n

Q: Recorded test outcome, item CC(C)=CC(=O)N(C)C1C2CN3CCC(O2)C13 (stereo not drawn)
Result: n

Q: Recorded test outcome, item `COc1cc2c(c(OC)c1OC)C(=O)NCCC2`
Result: n

Q: Recorded test outcome, item `CC(C)(C)OC(=O)N1C(OP(=O)(Oc2ccccc2)Oc2ccccc2)=COc2cccnc21`
Result: n
